System: HDF human dermal normal fibroblast cells
Method: Safety profile on HDF normal fibroblasts
Format: cell-based
Condition Description: 50 µM, 24 hrs
Experimental: MDA-231 triple-negative breast cancer cells, MCF-7 breast cancer cells, and A549 adenocarcinomic human alveolar basal epithelial cells were maintained in Roswell Park Memorial Institute media (RPMI 1640, Sigma-Aldrich, St. Louis, MO, USA) supplemented with 10% foetal bovine serum and 1% penicillin/streptomycin. […] The antiproliferative activity of compounds U1–6 was assessed using the 3-[4,5-dimethylthiazol-2-yl]-2,5-diphenyl tetrazolium bromide (MTT) assay, as previously described. […]
Experimental Endpoint: Inhibitory activity against HDF cells compared with the negative control

The cases that follow already have their Inhibitory activity against HDF cells compared with the negative control on record.
Cc1ccc(-n2c(SCC(=O)Nc3ccc(NC(=O)CN4CCOCC4)cc3)nnc2-c2c[nH]c3ccccc23)cc1 [Compound U3] : no significant change
O=C(CSc1nnc(-c2c[nH]c3ccccc23)n1-c1ccc(Cl)c(Cl)c1)Nc1ccc(NC(=O)CN2CCOCC2)cc1 [Compound U6] : limited toxicity
O=C(CSc1nnc(-c2c[nH]c3ccccc23)n1-c1ccc(F)cc1)Nc1ccc(NC(=O)CN2CCOCC2)cc1 [Compound U1] : no significant change
COc1ccc(-n2c(SCC(=O)Nc3ccc(NC(=O)CN4CCOCC4)cc3)nnc2-c2c[nH]c3ccccc23)cc1 [Compound U2] : limited toxicity
O=C(CSc1nnc(-c2c[nH]c3ccccc23)n1-c1ccc(Cl)cc1)Nc1ccc(NC(=O)CN2CCOCC2)cc1 [Compound U5] : no significant change

Now let's try a different one.
IN: Hello, please tell me recorded Inhibitory activity against HDF cells compared with the negative control for this one: O=C(CSc1nnc(-c2c[nH]c3ccccc23)n1-c1cccc(Cl)c1)Nc1ccc(NC(=O)CN2CCOCC2)cc1 [Compound U4]
OUT: no significant change

====

Parameter: melting point. Scope: all listed entries.

Cc1ccc(-n2c(SCC(=O)Nc3ccc(NC(=O)CN4CCOCC4)cc3)nnc2-c2c[nH]c3ccccc23)cc1 : 250 to 252 °C
O=C(CSc1nnc(-c2c[nH]c3ccccc23)n1-c1cccc(Cl)c1)Nc1ccc(NC(=O)CN2CCOCC2)cc1 : 220 to 222 °C
O=C(CSc1nnc(-c2c[nH]c3ccccc23)n1-c1ccc(F)cc1)Nc1ccc(NC(=O)CN2CCOCC2)cc1 : 208 to 210 °C

IN: Could you please provide reported melting point for O=C(CSc1nnc(-c2c[nH]c3ccccc23)n1-c1ccc(Cl)cc1)Nc1ccc(NC(=O)CN2CCOCC2)cc1 ? Thanks!
OUT: 208 to 210 °C

IN: Return value of melting point for input O=C(CSc1nnc(-c2c[nH]c3ccccc23)n1-c1ccc(Cl)c(Cl)c1)Nc1ccc(NC(=O)CN2CCOCC2)cc1 , no commentary.
OUT: 218 to 220 °C

IN: Tell us which melting point value is on record for COc1ccc(-n2c(SCC(=O)Nc3ccc(NC(=O)CN4CCOCC4)cc3)nnc2-c2c[nH]c3ccccc23)cc1
OUT: 173 to 175 °C

====

Tested on: MDA-MB-231 cells
Method: MTT cytotoxicity assay, MDA-MB-231
Type: cell-based
Condition Description: Homo sapiens, 48 h, mean ± SEM of three
Entries annotated with measured IC50
// return numeric value only (unit: µM, not printed)

IN: Tell me IC50 of O=C(CSc1nnc(-c2c[nH]c3ccccc23)n1-c1cccc(Cl)c1)Nc1ccc(NC(=O)CN2CCOCC2)cc1 when tested on MDA-MB-231 cells.
OUT: 28.4

IN: Using MDA-MB-231 cells as the test system, report measured IC50 of O=C(CSc1nnc(-c2c[nH]c3ccccc23)n1-c1ccc(Cl)c(Cl)c1)Nc1ccc(NC(=O)CN2CCOCC2)cc1 .
OUT: 79.4
